Tested on: MCF-12F
Protocol: cells
Condition Context: 72 h
Where a SMILES comes first, the peptide text is derived from it. [ ]: non-standard residue; d: D form. Dab = NCC[C@H](N)C(=O)O; Dap = NC[C@H](N)C(=O)O
Parameter Measured: pIC50
Just so you know, pIC50 here is -log10 of the concentration in molar units; reply with that number alone.

Below, each entry is followed by its recorded pIC50 result.
Compound	Endpoint Value
CC[C@H](C)[C@H](NC(=O)[C@H](CCCCN)NC(=O)[C@H](CCN)NC(=O)[C@@H](NC(=O)[C@@H](NC(=O)[C@H](CC(=O)O)NC(=O)[C@H](Cc1ccccc1)NC(=O)[C@H](CC(C)C)NC(=O)CN)[C@@H](C)CC)[C@@H](C)CC)C(=O)N[C@@H](C)C(=O)N[C@@H](CCC(=O)O)C(=O)N[C@@H](CO)C(=O)N[C@@H](Cc1ccccc1)C(N)=O [EH [Dab]^7] (H-GLFDII[Dab]KIAESF-NH2)	4.04
CC[C@H](C)[C@H](NC(=O)[C@H](CCN)NC(=O)[C@H](CCCCN)NC(=O)[C@@H](NC(=O)[C@@H](NC(=O)[C@H](CC(=O)O)NC(=O)[C@H](Cc1ccccc1)NC(=O)[C@H](CC(C)C)NC(=O)CN)[C@@H](C)CC)[C@@H](C)CC)C(=O)N[C@@H](C)C(=O)N[C@@H](CCC(=O)O)C(=O)N[C@@H](CO)C(=O)N[C@@H](Cc1ccccc1)C(N)=O [EH [Dab]^8] (H-GLFDIIK[Dab]IAESF-NH2)	4.17
CC[C@H](C)[C@H](NC(=O)[C@H](CCN)NC(=O)[C@H](CCN)NC(=O)[C@@H](NC(=O)[C@@H](NC(=O)[C@H](CC(=O)O)NC(=O)[C@H](Cc1ccccc1)NC(=O)[C@H](CC(C)C)NC(=O)CN)[C@@H](C)CC)[C@@H](C)CC)C(=O)N[C@@H](C)C(=O)N[C@@H](CCC(=O)O)C(=O)N[C@@H](CO)C(=O)N[C@@H](Cc1ccccc1)C(N)=O [EH [Dab]^7,8] (H-GLFDII[Dab][Dab]IAESF-NH2)	3.77

# next compound below
What reported pIC50 corresponds to CC[C@H](C)[C@H](NC(=O)[C@H](CN)NC(=O)[C@H](CN)NC(=O)[C@@H](NC(=O)[C@@H](NC(=O)[C@H](CC(=O)O)NC(=O)[C@H](Cc1ccccc1)NC(=O)[C@H](CC(C)C)NC(=O)CN)[C@@H](C)CC)[C@@H](C)CC)C(=O)N[C@@H](C)C(=O)N[C@@H](CCC(=O)O)C(=O)N[C@@H](CO)C(=O)N[C@@H](Cc1ccccc1)C(N)=O [EH [Dap]^7,8] (H-GLFDII[Dap][Dap]IAESF-NH2) on MCF-12F?
3.51

* * *

Protocol: BALB 3T3 Neutral Red Uptake cytotoxicity/phototoxicity test
Condition Context: mouse, Mean CC50 ± SD, −Irr, BALB 3T3 cells, non-irradiated (dark), NRU
Where a SMILES comes first, the peptide text is derived from it. [ ]: non-standard residue; d: D form. Orn = NCCC[C@H](N)C(=O)O
// values below are reported CC50
Numbers only here, please. The scale is µM.

Solved cases (2 shown):
Molecule	Unit Of Measurement	CC50
CC[C@H](C)[C@H](NC(=O)[C@H](CCCN)NC(=O)[C@H](CCCN)NC(=O)[C@@H](NC(=O)[C@@H](NC(=O)[C@H](CC(=O)O)NC(=O)[C@H](Cc1ccccc1)NC(=O)[C@H](CC(C)C)NC(=O)CN)[C@@H](C)CC)[C@@H](C)CC)C(=O)N[C@@H](C)C(=O)N[C@@H](CCC(=O)O)C(=O)N[C@@H](CO)C(=O)N[C@@H](Cc1ccccc1)C(N)=O [EH [Orn]^7,8] (H-GLFDII[Orn][Orn]IAESF-NH2)	µM	157
CC[C@H](C)[C@H](NC(=O)[C@H](CCCCN)NC(=O)[C@H](CCCN)NC(=O)[C@@H](NC(=O)[C@@H](NC(=O)[C@H](CC(=O)O)NC(=O)[C@H](Cc1ccccc1)NC(=O)[C@H](CC(C)C)NC(=O)CN)[C@@H](C)CC)[C@@H](C)CC)C(=O)N[C@@H](C)C(=O)N[C@@H](CCC(=O)O)C(=O)N[C@@H](CO)C(=O)N[C@@H](Cc1ccccc1)C(N)=O [EH [Orn]^7] (H-GLFDII[Orn]KIAESF-NH2)	µM	134

Note: attention shifts to another entry.
Query: CC50; subject: CC[C@H](C)[C@H](NC(=O)[C@H](CCCN)NC(=O)[C@H](CCCCN)NC(=O)[C@@H](NC(=O)[C@@H](NC(=O)[C@H](CC(=O)O)NC(=O)[C@H](Cc1ccccc1)NC(=O)[C@H](CC(C)C)NC(=O)CN)[C@@H](C)CC)[C@@H](C)CC)C(=O)N[C@@H](C)C(=O)N[C@@H](CCC(=O)O)C(=O)N[C@@H](CO)C(=O)N[C@@H](Cc1ccccc1)C(N)=O [EH [Orn]^8] (H-GLFDIIK[Orn]IAESF-NH2)
75.6
